Entries and their protein stability index
B1: SETD8 (parent)
chain: KKAQGKTQQNRKLTDFYPVRRSSR

- Variants of: B1
- PROTOCOL_DESCRIPTION: protein stability index of a GFP-peptide fusion (GPS, HEK-293T) (PSI 1-6); higher = more stable;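 also: lentivirally expressed fusions sorted by FACS into six bins by GFP to DsRed ratio, PSI derived from sequencing read proportions per bin multiplied by bin number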
- ASSAY_CONTEXT: c terminus: a fixed tail appended
Keep it simple and answer with nothing but the number.

mut=Y17M readout_kind="protein stability index" recorded_value=3.05

Reported protein stability index of R20G : 3.43

Reported protein stability index of V19F : 2.42

Reported protein stability index of G5H : 1.83

Reported protein stability index of N10P : 2.77
